biological target: Luciferin 4-monooxygenase (Photinus pyralis); experiment: Primary firefly luciferase (FLuc) qHTS assay for identification of artifact compounds. (AID 1845220); conditions: purified firefly luciferase, luminescence, 5 min; series mostly up to 54.1 µM; also: nearly all actives have a fitted effect of over 60% in size
The source made the active and inactive calls. Calls follow the shape of the dose curve; as a rule, active = well fitted inhibition curve with a large enough effect; inconclusive = small, poorly fitted or top-dose-only effect; inactive = flat fitted curve, though single readings scatter.
measuredEndpoint: activity change, negative = inhibition

{"compound": "CNC(C)C(=O)NC(C(=O)N1CCCC1C(=O)Nc1cccc2ncccc12)C(C)C (stereo not drawn)", "valueObserved": "inactive"}
{"compound": "C=C(C(=O)OC)[C@]12O[C@@](C)(CC[C@@]3(O)/C(=C\\C)C(=O)O[C@]3(C)C[C@@H]1OC(=O)C(CO)CN1CCCC1C(=O)O)CC2=O (stereo partly drawn)", "valueObserved": "inactive"}
{"compound": "CC1(C)CC=C(c2cnc3ccccc3c2)c2cc(C(=O)Nc3ccc(C(=O)O)cc3)ccc21", "valueObserved": "inactive"}
